Cited source for all entries: PubChem BioAssay

- Assay method text: basal 3T3-L1 adipocyte mitochondrial potential changes, profiling panel, cell-based, JC-1 fluorescence, 3T3-L1 adipocytes, 24 h, 100 nL compound (AID 1168); also: test concentration not given here
- Settings: JC-1 mitochondrial fluorescence, higher = more signal, called active from +8 up or from −8 down
Threshold check on z-score: at or above 0.02 gives 1, strictly below gives -1.

Compound	Class
CC(C)(C)OC(=O)CC[C@]1(C(=O)N2CCOCC2)COC(c2ccc(OCCCO)cc2)=N1	-1
C[C@]1(C(=O)NC2CC2)c2ccccc2C(=O)N(Cc2cc(F)cc(C(F)(F)F)c2)[C@H]1c1ccc(CO)cc1	1
C=C(COC)C(=O)CC[C@@H](OC(=O)c1ccccc1-c1ccccc1C(=O)O)c1ccccc1OCCO	-1
C=CC[C@@]1(C(=O)NCCCOC)N=C(c2ccc(OCCCO)cc2)O[C@@H]1c1ccccc1CN=[N+]=[N-]	1
O=C1C[C@@](C(=O)NCC(F)(F)F)(c2ccc([N+](=O)[O-])cc2)[C@@H](c2ccc(CO)cc2I)N1CC12CC3CC(CC(C3)C1)C2	1
O=C1OCCC/C=C\[C@H]2OC34C=CCN(Cc5ccccc5)C(=O)[C@H]3N(CCO)C(=O)[C@@H]4C12 (some centres not stated)	1
N#Cc1ccc(NN2C(C(O)c3ccc(B(O)O)cc3)C=CC3CN(c4ccccc4)C(=O)C32)cc1 (configuration not stated)	-1
C=CC[C@]1(C(N)=O)N=C(c2ccc(OCCCO)cc2)O[C@H]1c1ccccc1N=[N+]=[N-]	1
C=CCNC(=O)[C@@H]1[C@H]2C(=O)O[C@H](c3ccccc3)[C@H](c3ccccc3)N2[C@H](c2ccc(OCCO)cc2)[C@@]12C(=O)Nc1ccc(C#CCNC(N)=O)cc12	-1
C=CCNC(=O)[C@H]1[C@@H]2C(=O)O[C@@H](c3ccccc3)[C@@H](c3ccccc3)N2[C@@H](c2ccc(OCCO)cc2)[C@]12C(=O)N(C(=O)OCCOC)c1ccc(C#CCNC(N)=O)cc12	1
CN1C(=O)C2C=CC(C(O)c3cccs3)N(N(c3ccccc3)c3ccccc3)C2C1=O (configuration not stated)	-1
[N-]=[N+]=NCc1ccccc1C[C@@]1(C(=O)NCCN2CCOCC2)N=C(c2ccc(OCCCO)cc2)O[C@@H]1c1ccccc1	1
C=CCNC(=O)[C@@H]1[C@H]2C(=O)O[C@H](c3ccccc3)[C@H](c3ccccc3)N2[C@H](c2ccc(O)cc2)[C@@]12C(=O)N(C(=O)OCCOC)c1ccc(C#CCC(C(=O)OC)C(=O)OC)cc12	1
O=C1O[C@H](c2ccccc2)[C@H](c2ccccc2)N2[C@H]1[C@@H](C(=O)N1CCN(c3ncccn3)CC1)[C@]1(C(=O)Nc3ccc(C#CC4(O)CCCCCC4)cc31)[C@H]2c1ccc(O)cc1	-1
COc1ccc(NN2C(C(O)c3ccccc3)C=CC3C(=O)N(C4CCCCC4)C(=O)C32)cc1 (configuration not stated)	1
CCOC(=O)C[C@H]1[C@H](OC(=O)c2cc3ccccc3oc2=O)[C@@H](NC(=O)c2ccc(-c3ccccc3)cc2)c2cc(OCCCO)ccc2N1C(=O)Cc1ccc(OC)cc1	-1
O=C1c2ccccc2[C@](Cc2ccccc2I)(C(=O)NCCN2CCOCC2)[C@H](c2ccc(CO)cc2)N1Cc1ccccc1C(F)(F)F	1
O=C1NC(=O)C2C1C=CC(C(O)c1ccc(F)cc1)N2Nc1ccc(Cl)cc1Cl (configuration not stated)	-1
C=C(CC1([C@@H](NP(=O)(c2ccccc2)c2ccccc2)[C@H]2C[C@@H]2CCCC)CC1)c1cccc(OC)c1	-1
CC[C@@H]1C=C(C(=O)O)[C@H](c2cccc(Cl)c2)N1S(=O)(=O)c1ccc(C)cc1	-1
[N-]=[N+]=NCc1ccccc1C[C@]1(C(=O)N2CCCCC2)COC(c2ccc(OCCCO)cc2)=N1	1
COc1cccc(C)c1NC(=O)O[C@H]1[C@H](OC(=O)Nc2ccc3c(c2)OCO3)[C@H](OC(=O)Nc2ccc3c(c2)OCO3)[C@@H](OC)O[C@@H]1CO	1
COCCOC(=O)N1C(=O)[C@@]2(c3cc(C#CCNC(N)=O)ccc31)[C@H](C(=O)Nc1nc3ccccc3s1)[C@H]1C(=O)O[C@H](c3ccccc3)[C@H](c3ccccc3)N1[C@@H]2c1ccc(O)cc1	-1
COC(=O)C(CC#Cc1ccc2c(c1)[C@]1(C(=O)N2)[C@H](c2ccc(OCCO)cc2)N2[C@H](c3ccccc3)[C@H](c3ccccc3)OC(=O)[C@H]2[C@@H]1C(N)=O)C(=O)OC	1
COC(=O)[C@]1(Cc2ccccc2CN=[N+]=[N-])N=C(c2ccc(OCCCO)cc2)O[C@@H]1c1ccccc1N=[N+]=[N-]	-1
O=C1O[C@@H](c2ccccc2)[C@@H](c2ccccc2)N2[C@@H](c3ccc(OCCO)cc3)[C@]3(C(=O)Nc4ccc(C#CC5=CCCCC5)cc43)[C@@H](C(=O)Nc3nc4ccccc4s3)[C@H]12	-1
CCCCN1CC=CC23O[C@@H]4/C=C\CCC(C)OC(=O)C4[C@H]2C(=O)N(CCO)[C@@H]3C1=O (some centres not stated)	-1
